STUDY_TARGET: T1, SulfoTyr C4 peptide (not fully specified; Y4, Y7 and Y9 sulfated (SO3); C-terminal biotin)
T1 construct: also called C4 alpha chain peptide; human sulfotyrosinylated C4 peptide
T1 peptide: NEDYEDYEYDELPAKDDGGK
METHOD_DESCRIPTION: ELISA, 50 nM mAb
Protocol: Recombinant PSGL-1-hFc1 chimera protein consisting of PSGL-1's extracellular domain (ECD) served as a positive control. […] Primary antibody was added (25 ul per well) in duplicate at 50 nM in assay buffer (blocking buffer containing 0.05% Tween®20) into test and control (just blocked) wells and the plate incubated for 45 min at 37° C.
Each record here notes measured binding normalized to PSGL-1.
Just the number, please, no unit after it.

>>> observed_measurement("09B09 (antibody, IgG4, V domains shown) VH: EVKLLESGGGLVQPGGSLRLSCAASGITFSTYAMMWVRQAPGKGLEWVSGISGSGASRYYADSVKGRFTISRDNSKNMLYLQMNSLRAEDTAVYYCAKKVLGRRKQYFDDWGQGTLVTVSS VL: DIVMTQSPLSLPVTPGEPASISCRSSQSLLHSNGYNYLDWYLQRPGQSPQLLIYLGSHRASGVPDRFSGSGSGTEHTLKITTVAAEDVGVYYCMQALQSPPTFGQGTRLDIK")
0.35
>>> observed_measurement("03B03 (antibody, IgG4, V domains shown) VH: EVQLVQSGGGLVQPGGSLRLSCAATGFTVSRNYMTWVREAPGKGLEWVAGIYKSGTTSYTESVKGRFTISRDNSKNTLYLEMSRLRAEDTAVYYCAKSTSTWGQGTQVTVSS VL: DIVMTQSPLSLPVTLGQPASISCRASQSPGYSDGNTYLNWFQQRPGQSPRRLIYKVSNRDPGVPDRFSGSGSGTDFTLKISRVEAEDVGVYYCMQATHWPSFGQGTRLEIK")
1
>>> observed_measurement("03D01 (antibody, IgG4, V domains shown) VH: EVQLVQSGGGLVQPGGSLRLSCAATGFTVSRNYMTWVREAPGKGLEWVAGIYKSGTTSYIESVKGRFTISRDNSKNTLYLEMSRLRAEDTAVYYCAKSTSTWGQGTQVTVSS VL: DVVMTQSPVSLPVTLGQPASISCRSSRNLLYSNGNTYLNWFHQRPGQSPRRLIYKVSNQDSGVPDRFSGSGSGTDFTLKISRVEAEDVGVYYCMQGTHWPTTFGQGTRLEIK")
1.13
>>> observed_measurement("20I15 (antibody, V domains shown, From mouse immunisation; only variable domains given; also called 20115) VH: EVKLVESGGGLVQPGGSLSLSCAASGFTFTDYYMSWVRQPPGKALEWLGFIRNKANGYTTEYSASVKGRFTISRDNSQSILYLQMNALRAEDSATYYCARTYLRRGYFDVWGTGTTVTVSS VL: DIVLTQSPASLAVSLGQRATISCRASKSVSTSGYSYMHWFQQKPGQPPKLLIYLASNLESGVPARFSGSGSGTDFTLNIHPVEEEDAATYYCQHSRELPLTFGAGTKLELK")
0.34
>>> observed_measurement("09A08 (antibody, IgG4, V domains shown) VH: QVQLVQSGAAVKKPGESLKISCKGSGYTFSNYWIGWVRQMPGKGLEWMGIIYPGDSDTRYSPSFQGQVTISADKSISTAYLQWSSLKASDTAMYYCARHIVGPPKSAFDIWGQGTMVTVSS VL: DIVMTQTPLSLPVTLGQPASISCSSSQGLQKRDGNTYLNWFQQRPGQSPRRLIYKVSNRDSGVPDRFSGSGSGTDFTLKISRVEAEDVGVYYCMQGTHWPWTFGQGTRVEIK")
0.54
>>> observed_measurement("03B01 (antibody, IgG4, V domains shown) VH: QMQLVQSGAEVKKPGASVKVSCRASGYRFSTYAISWVRQAPGQGLEWIGWISTHHGNTKYAQKFQDRVTMTADASTSIAYMELRSLRSDDTAVYYCAAAIGNYWGQGTLVTVSS VL: EIVLTQSPAILSVSPGERASLSCRASQSVSSKLAWYQQKPGQAPRLLIYGASTRATGIPPRFSGSGSGTDFTLTISSLEPEDFAVYYCQQRSNWPLTFGGGTKVEIK")
1.15

Quick check: binding normalized to PSGL-1 of 16L15 (antibody, V domains shown, From mouse immunisation; only variable domains given) VH: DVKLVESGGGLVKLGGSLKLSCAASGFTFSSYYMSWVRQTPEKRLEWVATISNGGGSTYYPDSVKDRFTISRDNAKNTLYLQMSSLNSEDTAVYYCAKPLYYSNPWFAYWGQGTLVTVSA VL: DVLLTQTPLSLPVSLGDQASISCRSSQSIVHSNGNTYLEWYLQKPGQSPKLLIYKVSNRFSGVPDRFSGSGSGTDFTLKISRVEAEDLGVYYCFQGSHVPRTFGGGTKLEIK ? 0.01

Quick check: binding normalized to PSGL-1 of 03B04 (antibody, IgG4, V domains shown) VH: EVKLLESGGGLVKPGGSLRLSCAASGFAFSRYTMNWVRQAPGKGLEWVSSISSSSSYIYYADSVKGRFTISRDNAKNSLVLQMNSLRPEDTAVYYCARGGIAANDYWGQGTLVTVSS VL: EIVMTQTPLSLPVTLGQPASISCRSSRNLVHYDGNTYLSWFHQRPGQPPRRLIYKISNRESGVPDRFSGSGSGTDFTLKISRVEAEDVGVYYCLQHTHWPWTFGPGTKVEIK ? 0.41

Quick check: binding normalized to PSGL-1 of 01A11 (antibody, IgG4, V domains shown) VH: EVKLLESGGGLVQPGGSLRLSCATSGFSFSDYWMSWVRQAPGKGLEWVASIKKDGSEKYYVDSVKGRFTISRDNAKNSLYVQMNSLRAEDTAIYYCVVFGAWGPGTLVTVSS VL: DIVMTQTPLSLPVTLGQPASISCRSGRSLVYSDGNTYLNWFQQRPGQSPRRLIYKVSNRDSGVPDRFSGGGSGTDFTLKISRVEAEDVAIYYCMQGTHWPPTFGQGTKLEIK ? 0.07

Quick check: binding normalized to PSGL-1 of 03D07 (antibody, IgG4, V domains shown) VH: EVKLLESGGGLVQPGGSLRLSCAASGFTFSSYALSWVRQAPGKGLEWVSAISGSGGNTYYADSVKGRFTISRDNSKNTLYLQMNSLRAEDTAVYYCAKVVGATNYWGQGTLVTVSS VL: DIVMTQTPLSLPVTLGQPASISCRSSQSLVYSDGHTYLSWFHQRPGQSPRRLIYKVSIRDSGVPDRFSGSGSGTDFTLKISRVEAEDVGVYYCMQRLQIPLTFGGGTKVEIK ? 0.71
